property-measured: melting point (°C)

P: CC(=O)Nc1ccc(C=C(C#N)C(=O)OCC[Si](C)(C)C)cc1
Q: O=C1Nc2ccccc2SC1c1ccccc1Cl (stereo not given)
# query: argmin of melting point over P and Q Reply briefly: the label of your chosen item.
P

---

# melting point per record follows

Examples from the recorded data:
| molecule | result-value |
| --- | --- |
| CS(=O)(=O)n1ccc2c1CC(c1ccccc1)CC2=O (stereo unspecified) | 172 to 173 °C |
| COc1cc(C(=O)N2CCC(N3CCC(Oc4ccc(F)c(F)c4)CC3)C2)ccc1N (stereo unspecified) | 138 to 139 °C |
| CC(COc1ccc(CC2SC(=O)N(C(c3ccccc3)(c3ccccc3)c3ccccc3)C2=O)cc1)N1CC(COc2cccc(Cl)c2)OC1=O (stereo unspecified) | 74 to 81 °C |
| C[Si](C)(C)CC(C#N)CC(=O)O (stereo unspecified) | 39 to 41 °C |
| NC(=O)C(=O)c1cccc(Cl)c1Cl | 213 to 214 °C |
| COc1cc(N2CCC(N3CC[C@@H](O)C3)CC2)ccc1[N+](=O)[O-] | 137 to 139 °C |
| O=C(NC1CC1)c1cc(Nc2nc(N3CCC[C@H]3CO)nc3ccoc23)n[nH]1 | 96.8 °C |
| Oc1ccc(-c2ncc3ncc(-c4cccnc4)cc3n2)cc1 | > 268 °C |

Consider the additional molecule presented here.
Please supply the value of reported melting point for the item Nc1cccc(-c2ccc(C3=CCCN(Cc4ccccc4)C3)cc2)n1
270 to 272 °C

---

# melting point per record follows

Examples from the recorded data:
| compound | result-value |
| --- | --- |
| Cc1nc2cc(Cl)ccc2c(=O)n1CCc1ccccc1 | 133 to 135 °C |
| O=S(Cc1ccccn1)c1nc2cc3c(cc2[nH]1)CCC3 (centres undefined) | 173 to 174 °C |
| O=[N+]([O-])c1cn2c(n1)O[C@@H](COc1ccc(N3CCC(Nc4ccc(OCc5ccc(OC(F)(F)F)cc5)cc4)CC3)cc1)CC2 | 227 to 229 °C |
| O=c1[nH]c2cc(C(F)(F)F)c([N+](=O)[O-])c(Cl)c2[nH]c1=O | 343 to 347 °C |
| CC12C=CC(=O)C(N)=C1C=CC1C2CCC2(C)C(=O)CCC12 (centres undefined) | 206 to 208 °C |

Please supply the value of reported melting point for the item Cc1ccc2[nH]c(-c3ccc(S(N)(=O)=O)cc3)c(-c3ccccc3)c2c1
242 to 244 °C

Please supply the value of reported melting point for the item C1=Cn2cnnc2C(c2ccccc2)c2ccccc21 (centres undefined)
217 to 218 °C

Please supply the value of reported melting point for the item CCOC(=O)c1cc(OCC)c(OCC)cc1[N+](=O)[O-]
53 to 54 °C

Please supply the value of reported melting point for the item CCCCC(=O)N[C@@H]1CN2C(=O)N(c3cc(Cl)nc(Cl)c3)C(=O)[C@@]2(Cc2ccc(OC(F)(F)F)cc2)C1
66.8 °C

---

# melting point per record follows

Please supply the value of reported melting point for the item O=C(O)CCC/C=C\[C@@H]1C[C@@H](NS(=O)(=O)c2ccc(Cl)cc2)CN1Cc1ccccc1
87 to 91 °C

Please supply the value of reported melting point for the item CCOC(=O)c1ccc2ccccc2c1
35 to 36.5 °C

Please supply the value of reported melting point for the item COC(=O)c1cc(CCc2cc(OC)ccc2OC)ccc1N
50 to 55 °C

Please supply the value of reported melting point for the item CC(C)N(C(C)C)P(N)(N)=S
93 to 98 °C

Please supply the value of reported melting point for the item CCOC(=O)c1ccc(C2=NOC(c3cc(Cl)cc(Cl)c3)(C(F)(F)F)C2)cc1[N+](=O)[O-] (stereo unspecified)
160 to 162 °C
